Tested on: HT-29
Test: Cytotoxicity against human HT-29 cells assessed as growth inhibition after 3 days by MTT assay
Format: functional, cell-based
Conditions: HT-29, 72 h
Record form. Attribute: IC50. Fill in for each entry.
Answers are plain numbers, in µM.

Example compounds with recorded IC50:
COc1ccc(/C=C\c2cc(OC)c(OC)c(OC)c2)cc1OCCC/C=C/c1ccc(Br)cc1 11
COCOc1ccc(/C=C/CCCOc2cc(/C=C\c3cc(OC)c(OC)c(OC)c3)ccc2OC)cc1 7
COCOc1ccccc1/C=C/CCCOc1cc(/C=C\c2cc(OC)c(OC)c(OC)c2)ccc1OC 9.6
COc1cccc(/C=C/CCCOc2cc(/C=C\c3cc(OC)c(OC)c(OC)c3)ccc2OC)c1 25
COc1ccc(/C=C/CCCOc2cc(/C=C\c3cc(OC)c(OC)c(OC)c3)ccc2OC)cc1 47
COCOc1cccc(/C=C/CCCOc2cc(/C=C\c3cc(OC)c(OC)c(OC)c3)ccc2OC)c1 59

Count: 3. Required value per item: IC50.
1. C/C=C/COc1cc(/C=C\c2cc(OC)c(OC)c(OC)c2)ccc1OC
2. C=CCOc1cc(/C=C\c2cc(OC)c(OC)c(OC)c2)ccc1OC
3. COc1ccc(/C=C\c2cc(OC)c(OC)c(OC)c2)cc1OCCC/C=C/c1ccc(Cl)cc1

1. 161
2. 29
3. 18
